molecular target: human recombinant BACE1 (Homo sapiens (Human)); assay: In vitro enzymatic BACE1 FRET assay; format: biochemical; conditions: read-out: IC50 IP (μM) BACE1 enzyme
Sequence (P56817 46-501): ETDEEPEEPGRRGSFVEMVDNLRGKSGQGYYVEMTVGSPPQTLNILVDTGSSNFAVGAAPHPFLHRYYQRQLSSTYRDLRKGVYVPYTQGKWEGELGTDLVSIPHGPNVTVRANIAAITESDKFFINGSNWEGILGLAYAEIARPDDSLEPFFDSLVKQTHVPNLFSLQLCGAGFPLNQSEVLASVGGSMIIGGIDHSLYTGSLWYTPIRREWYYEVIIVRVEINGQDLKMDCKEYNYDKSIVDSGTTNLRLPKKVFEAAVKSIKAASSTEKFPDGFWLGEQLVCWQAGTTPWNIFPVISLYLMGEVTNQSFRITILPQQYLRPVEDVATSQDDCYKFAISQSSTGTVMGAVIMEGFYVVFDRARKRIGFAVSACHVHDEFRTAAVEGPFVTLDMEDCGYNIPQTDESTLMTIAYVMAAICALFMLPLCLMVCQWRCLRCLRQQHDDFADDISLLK
property label: IC50 (µM)

> print(dat)
                                   compound  property.label  quantity.unit  endpoint.result
1  C#CCOc1cnc2c(Nc3ccc(F)c([C@@]4(C)N=C(N)S[C@@]5(C(=O)N6CCCC6)C[C@H]54)c3)nccc2n1 [Example 632]            IC50             µM         0.000715
2  C#CCOc1cnc(C(=O)Nc2cc(F)c(F)c([C@@]3(C)N=C(N)S[C@@]4(CNC(C)=O)C[C@H]43)c2)cn1 [Example 1042]            IC50             µM         0.000317

(I) C#CCOc1cnc(C(=O)Nc2ccc(F)c([C@@]3(C)N=C(N)S[C@@]4(C(=O)NC(C)(C)C)C[C@H]43)c2)cn1 [Example 798]
(II) C#CCOc1cnc(C(=O)Nc2cc(F)c(F)c([C@@]3(C)N=C(N)S[C@@]4(COC)C[C@H]43)c2)c(C)n1 [Example 862]
(III) COC[C@]12C[C@H]1[C@@](C)(c1cc(NC(=O)c3cnc(OC(C)C(F)(F)F)cn3)ccc1F)N=C(N)S2 (mixture of isomers) [Example 968]
(IV) COc1ncc(NC(=O)c2ccc(Cl)cn2)cc1[C@@]1(C)N=C(N)S[C@@]2(C(F)F)C[C@@H]12 [Example 990]
Given 4 compounds, produce a descending ranking by IC50. // format: requested-order list of labels III, IV, II, I

====

Tested on: Aβ40 in conditioned medium of cells stably expressing Amyloid Precursor Protein (APP)
Test: In vitro BACE-1 cell-based assay (Aβ40 sandwich ELISA)
Details: BACE1 cell-based assay; read-out: IC50 IP (μM) BACE1 cell
Experimental: In Vitro BACE-1 Cell-Based Assay The cell-based assay measures inhibition or reduction of Aβ40 in conditioned medium of test compound treated cells expressing amyloid precursor protein. […] After 24 h of incubation with the test compounds the supernatant conditioned media was collected and the Aβ40 levels were determined using a sandwich ELISA. The IC50 of the compound was calculated from the percent of control or percent inhibition of Aβ40 as a function of the concentration of the test compound. […]
property label: IC50 (µM)

> print(dat)
                                   compound  quantity.unit  endpoint.result
1  NC1=N[C@](CF)(c2cc(NC(=O)c3ccc(Cl)cn3)cc(F)c2F)[C@@H]2C[C@@H]2S1 [Example 18]             µM           0.0169
2  N#Cc1cnc2c(Nc3ccc(F)c([C@@]4(CF)N=C(N)S[C@@]5(CO)C[C@H]54)c3)nccc2c1             µM          0.00505
3  COc1cnc2c(Nc3cc(F)c(F)c([C@@]4(C)N=C(N)S[C@@]5(CF)C[C@H]54)c3)ncnc2c1             µM          0.00281
4  C[C@]1(c2cc(Nc3ncnc4cc(C#N)cnc34)cc(F)c2F)N=C(N)S[C@@]2(C(F)F)C[C@@H]12             µM           0.0138
5  C[C@]1(c2cc(NC(=O)c3ccc(Cl)cn3)cnc2F)N=C(N)S[C@@]2(CO)C[C@H]21             µM           0.0112

(I) COc1cnc(C(=O)Nc2cc(F)c(F)c([C@@]3(CF)N=C(N)S[C@H]4C[C@H]43)c2)c(C)n1
(II) N#Cc1cnc2c(Nc3cc(F)c(F)c([C@@]4(CF)N=C(N)S[C@@H]5C[C@@H]54)c3)nccc2c1
(III) Cc1cc(C#N)cnc1C(=O)Nc1ccc(F)c([C@@]2(CF)N=C(N)S[C@H]3C[C@H]32)c1
(IV) NC1=N[C@](CF)(c2cc(NC(=O)c3ccc(Cl)cn3)ccc2F)[C@@H]2C[C@]2(CO)S1
(V) C#CCOc1cnc(C(=O)Nc2cc(F)c(F)c([C@@]3(C)N=C(N)S[C@@]4(CO)C[C@H]43)c2)cn1
Given 5 compounds, produce a descending ranking by IC50. // format: requested-order list of labels I, II, III, IV, V
(I: 0.0548 µM, II: 0.013 µM, III: 0.00522 µM, IV: 0.0014 µM, V: 0.00035 µM)

(I) C[C@]1(c2cc(Nc3nccc4cc(C#N)cnc34)cc(F)c2F)N=C(N)S[C@@]2(CO)C[C@H]21
(II) C[C@]1(c2cc(NC(=O)c3ccc(C#N)cn3)cc(F)c2F)N=C(N)S[C@H]2C[C@H]21
Quick check, higher IC50 between I and II ? Identify your selection by its label. II
(II: 0.00569 µM, I: 0.00196 µM)

Origin of measurements: patent US20160046618A1
